test system: NCI-H1944; assay: normalised cell viability (NPI; 0 = phenylarsine oxide control, 1 = DMSO control) (fraction of DMSO control); higher = more viable cells (less compound toxicity); details: glucocorticoid arm: vehicle; compound 1 µM; 6 days
Structures can show the parent of a compound that is named as a salt. In all, about 1,900 compounds were measured (“normalised cell viability (NPI; 0 = phenylarsine oxide control, 1 = DMSO control)”: median about 1, lowest 2% from about 0.039 on). The entries come from a sample that favours the lowest values as a whole.
Quick reference: normalised cell viability of the listed items.

C[C@]12CC[C@H](O)CC1=CC[C@@H]1[C@@H]2CC[C@]2(C)C(c3cccnc3)=CC[C@@H]12 [Abiraterone]    0.848
CC(C)NCC(O)c1ccc(O)c(O)c1 (racemic) [(±)-Isoproterenol hydrochloride]    1
Cc1cc(Cn2cnc3c2C[C@@H](C(=O)O)N(C(=O)C(c2ccccc2)c2ccccc2)C3)ccc1N    1.03

stdin: # normalised cell viability lookup, item CN1CC2c3ccccc3Oc3ccc(Cl)cc3C2C1 (centres undefined) [Asenapine]
stdout: 0.995

###

tested on: NCI-H1944; experiment: normalised cell viability (NPI; 0 = phenylarsine oxide control, 1 = DMSO control) (fraction of DMSO control); higher = more viable cells (less compound toxicity); settings: glucocorticoid arm: vehicle; compound 1 µM; 6 days
Structures can show the parent of a compound that is named as a salt. Over roughly 1,900 compounds, “normalised cell viability (NPI; 0 = phenylarsine oxide control, 1 = DMSO control)” has its median near 1; the lowest 2% begin near 0.039. The sample holds the lowest values, similar compounds and a random draw of the others, so the mix is not that of the screen.
Quick reference: normalised cell viability of the listed items.
Answer field: number only, no words.

Would you please look over these solved cases?
N[C@H](CO)C(=O)O    1.02
Cc1cc(N)c2ccccc2[n+]1CCCCCCCCCC[n+]1c(C)cc(N)c2ccccc21 [Dequalinium chloride hydrate]    0.991
Nc1ncn([C@@H]2O[C@H](CO)[C@@H](O)[C@H]2O)c(=O)n1    0.976

stdin: # normalised cell viability lookup, item CCCCCCCCCCCCCCCCCC(=O)NCC(COP(=O)([O-])OCC[N+](C)(C)C)OCC (racemic)
stdout: 1

stdin: # normalised cell viability lookup, item CC1(C)CCC(NC(=O)[C@@H](N)CCC(=O)O)CC1
stdout: 0.97

stdin: # normalised cell viability lookup, item N=C1Sc2ccccc2C2=NCCCN12
stdout: 1

stdin: # normalised cell viability lookup, item Nc1ccn([C@@H]2O[C@H](CO)[C@@H](O)[C@@H]2O)c(=O)n1 [Cytosine-1-beta-D-arabinofuranoside hydrochloride]
stdout: 0.0913

stdin: # normalised cell viability lookup, item NC1CCN(O)C1=O (racemic)
stdout: 0.985

stdin: # normalised cell viability lookup, item Cc1nc(N=Nc2ccc(C(=O)O)cc2)c(COP(=O)(O)O)c(C=O)c1O
stdout: 0.994

###

Quick reference: normalised cell viability of the listed items.
test system: NCI-H1944; experiment: normalised cell viability (NPI; 0 = phenylarsine oxide control, 1 = DMSO control) (fraction of DMSO control); NCI-H1944 is a non-small cell lung cancer line; higher = more viable cells (less compound toxicity); conditions: glucocorticoid arm: vehicle; compound 5 µM; 6 days;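 note: CTB read-out in 384-well plates, triplicate wells, NPI normalised per plate against 1 µM phenylarsine oxide (0) and 0.1% DMSO (1) controls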
Whole data set: some 1,900 compounds, median “normalised cell viability (NPI; 0 = phenylarsine oxide control, 1 = DMSO control)” near 1, cut for the lowest 2% near 0.039. Many of the other results were omitted from the sample, so the lowest values are more common in it than they were.
Answer field: number only, no words.

CC(=O)O[C@H]1C(=O)[C@@]2(C)[C@H]([C@H](OC(=O)c3ccccc3)[C@]3(O)C[C@H](OC(=O)[C@H](O)[C@@H](NC(=O)c4ccccc4)c4ccccc4)C(C)=C1C3(C)C)[C@]1(OC(C)=O)CO[C@@H]1C[C@@H]2O    0.0382

Field: next molecule
stdin: # normalised cell viability lookup, item CC(=O)O[C@@]12CO[C@@H]1C[C@H](O)[C@@]1(C)C(=O)[C@H](O)C3=C(C)[C@@H](OC(=O)[C@H](O)[C@@H](NC(=O)OC(C)(C)C)c4ccccc4)C[C@@](O)([C@@H](OC(=O)c4ccccc4)[C@H]21)C3(C)C
stdout: 0.0428
